# inhibition at 10 µM values compiled below
target_entity: KRAS G12D (Homo sapiens, UniProt P01116, G12D)
Construct: aa1-188 KRAS WT, HRAS WT, NRAS WT, or KRAS containing the containing the G12D, G13D or Q61H amino acid substitutions
Sequence (P01116 1-188 isoform P01116-2 G12D): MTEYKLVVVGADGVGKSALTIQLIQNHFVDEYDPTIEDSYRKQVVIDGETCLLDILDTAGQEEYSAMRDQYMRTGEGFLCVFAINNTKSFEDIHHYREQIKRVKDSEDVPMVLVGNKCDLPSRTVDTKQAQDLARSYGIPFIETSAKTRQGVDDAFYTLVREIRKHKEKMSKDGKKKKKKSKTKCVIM
test_description: HTRF nucleotide exchange assay (NEA), KRAS G12D
Format: biochemical
assay_conditions: 1 h; recombinant human KRAS aa1-188 G12D, 2 nM; 60 min compound incubation, EDA-GTP-DY647P1
readout_name: inhibition at 10 µM

* Cc1c(-c2cc(O)cc3ccccc23)ccc2c(N3CCn4cncc4C3)nc(OCC34CCCN3CCC4)nc12 | 10 to 49%
* Cc1ccc2[nH]ncc2c1-c1ccc2c(N3CCCOCC3)nc(OCC34CCCN3CCC4)nc2c1C | 10 to 49%
* Cc1c(-c2n[nH]c3ccccc23)ccc2c(N3CCCOCC3)nc(OCC34CCCN3CCC4)nc12 | 10 to 49%
* Cc1c(-c2ncnc3ccc(C#N)cc23)ccc2c(N3CCCOCC3)nc(OCC34CCCN3CCC4)nc12 | 10 to 49%
* Cc1c(-c2cccc3cnn(C)c23)ccc2c(N3CCCOCC3)nc(OCC34CCCN3CCC4)nc12 | 10 to 49%
* Cc1c(-c2cc(O)cc3ccccc23)ccc2c(N3CCOCCC3=O)nc(OCC34CCCN3CCC4)nc12 | 10 to 49%
* Cc1c(-c2cc(O)cc3ccccc23)ccc2c(N3CCCOCC3=O)nc(OCC34CCCN3CCC4)nc12 | 10 to 49%
* COc1ccc(C(F)(F)F)cc1-c1ccc2c(N3CCCOCC3)nc(OCC34CCCN3CCC4)nc2c1C | 10 to 49%
* Cc1c(-c2cc(O)cc3ccccc23)ccc2c(N3CCn4ccnc4C3)nc(OCC34CCCN3CCC4)nc12 | 10 to 49%
* COc1ccc(Cl)cc1-c1ccc2c(N3CCCOCC3)nc(OCC34CCCN3CCC4)nc2c1C | 10 to 49%
* Cc1c(-c2cc(O)cc3ccccc23)ccc2c(N3CCc4[nH]ncc4C3)nc(OCC34CCCN3CCC4)nc12 | 10 to 49%
* Cc1c(-c2c[nH]nc2C(F)(F)F)ccc2c(N3CCCOCC3)nc(OCC34CCCN3CCC4)nc12 | 10 to 49%
* Cc1c(-c2cc(O)cc3ccccc23)ccc2c(N3CCn4nccc4C3)nc(OCC34CCCN3CCC4)nc12 | 10 to 49%
* Cc1c(-c2cc(O)cc3ccccc23)ccc2c(N3CCc4cn[nH]c4C3)nc(OCC34CCCN3CCC4)nc12 | 10 to 49%
* Cc1c(-c2nc(N)cc3ccccc23)ccc2c(N3CCCOCC3)nc(OCC34CCCN3CCC4)nc12 | 10 to 49%
* Cc1c(-c2cccc3[nH]ncc23)ccc2c(N3CCCOCC3)nc(OCC34CCCN3CCC4)nc12 | 10 to 49%
* Cc1nc(-c2ccc3c(N4CCCOCC4)nc(OCC45CCCN4CCC5)nc3c2C)c2ccccc2n1 | 10 to 49%

---

# pIC50 annotations
target_entity: KRAS G12S (Homo sapiens, UniProt P01116, G12S)
Construct: 4 nM KRAS; aa1-188 containing the G12V, G12C, G12A or G12S amino acid substitution
Sequence (P01116 1-188 isoform P01116-2 G12S): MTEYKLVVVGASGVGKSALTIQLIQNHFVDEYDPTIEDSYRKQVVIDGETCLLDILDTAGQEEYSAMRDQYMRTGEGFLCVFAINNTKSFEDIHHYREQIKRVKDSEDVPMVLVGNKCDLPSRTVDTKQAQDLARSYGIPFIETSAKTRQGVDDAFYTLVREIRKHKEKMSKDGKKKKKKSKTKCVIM
test_description: HTRF nucleotide exchange assay (NEA), KRAS G12S
assay_conditions: recombinant human KRAS aa1-188 G12S, 4 nM; 60 min compound incubation, EDA-GTP-DY647P1
pIC50: −log10 of the molar value.
readout_name: pIC50

- Oc1cc(-c2ccc3c(N4CCCOCC4)nc(OCC45CCCN4CCC5)nc3c2F)c2ccccc2c1: 5.00 to 7.00
- C#Cc1c(F)ccc2cc(O)cc(-c3ccc4c(N5CCCOCC5)nc(OC[C@@]56CCCN5C[C@H](F)C6)nc4c3C)c12 (racemic): > 8.00
- C#Cc1c(F)ccc2cc(O)cc(-c3ccc4c(N5CCCOCC5)nc(OC[C@@]56CCCN5C[C@H](F)C6)nc4c3F)c12 (racemic): > 8.00
- C#Cc1c(F)ccc2cc(O)cc(-c3ccc4c(N5CCCNC(=O)C5)nc(OC[C@@]56CCCN5C[C@H](F)C6)nc4c3C)c12 (racemic): 7.00 to 8.00
- N#Cc1cc2c(N3CCCOCC3)nc(OCC34CCCN3CCC4)nc2c(F)c1-c1cc(O)cc2ccccc12: 5.00 to 7.00
- Cc1c(-c2cccc3sc(N)c(C#N)c23)ccc2c(N3CCCOCC3)nc(OCC34CCCN3CCC4)nc12: 5.00 to 7.00

Every entry's value here was drawn from patent US20240287078A1.
